Target entity: human GLP-1 receptor (human) (UniProt P43220)
Sequence (P43220 24-463): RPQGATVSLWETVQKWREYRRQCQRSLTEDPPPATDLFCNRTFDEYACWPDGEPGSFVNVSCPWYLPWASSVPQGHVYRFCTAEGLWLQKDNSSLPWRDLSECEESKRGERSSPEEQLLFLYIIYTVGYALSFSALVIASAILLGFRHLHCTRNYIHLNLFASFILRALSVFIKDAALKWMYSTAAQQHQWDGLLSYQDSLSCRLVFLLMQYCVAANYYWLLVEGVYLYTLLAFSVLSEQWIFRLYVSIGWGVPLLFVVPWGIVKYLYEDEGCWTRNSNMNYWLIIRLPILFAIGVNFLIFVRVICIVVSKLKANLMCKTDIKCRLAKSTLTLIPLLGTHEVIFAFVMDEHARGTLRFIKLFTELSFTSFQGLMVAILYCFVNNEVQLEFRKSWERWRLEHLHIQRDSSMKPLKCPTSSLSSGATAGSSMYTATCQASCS
No end group written: not given here.
Please go through the items and note down their EC50 GLP1R (nM); cAMP assay on CHO-JumpIn cells with human GLP1R.

A selection of reference data follows.
binder="HSQGTFTSDYSKYLDSKRAHDFVQWLLNT-NH2 [Peptide 24]" result="0.018 nM"
binder="HSQGTFTSDYSKYVEDRRAHDFVQWLMNT-NH2 [Peptide 2]" result="0.184 nM"

Turning to the following binder.
Task: If you can, please state the reported EC50 GLP1R (nM); cAMP assay on CHO-JumpIn cells with human GLP1R value of KALGQFTFTSDYSKYLDSRRAQDFVQWLMNT-NH2 [Peptide 21] .
Output: 14.8 nM
